# Method: Cargo loading and ApoBP ligand content by microBCA / BCA assay
# Assay type: physicochemical
# Test Settings: epitope in PLGA NPs, Table 68
Endpoint: Loading Capacity (µg/mg)
# value in µg/mg; strip the unit string

Substance	Loading Capacity / µg/mg
4 (SYGRDPYSPSQDPYS; listed as Arachis hypogaea) [compound 4]	8.68

Read the next record carefully.
Reported Loading Capacity, substance 2 (LRNLPQQCGLRAPQR; listed as Arachis hypogaea) [compound 2] : ____ 3.22

Numbers sourced from patent US20250339514A1.
